System: BT-549 breast
Experiment: NCI-60 one-dose screen, 48 h
Details: 10 µM unless noted
About 83,000 compounds went through this panel and 20% of them were active in at least one assay; those are over-represented in the sample as a whole. Calls of active or inactive are those of the source. The calls were made as follows: active = growth percent below 10; inactive = the rest.
Outcome codes: class 1 (active), class 0 (inactive)

compound	class.name
CSc1ccc(SC2c3ccc(C)cc3Oc3nc(N)c(C#N)c(N)c32)cc1 (stereo not given)	class 1
O=C1/C(=C/N2N=C(c3ccc4ccccc4c3)CC2c2ccccc2O)SC(=S)N1c1cccnc1 (stereo not given)	class 1
C=CC(COC(c1ccccc1)(c1ccccc1)c1ccccc1)N(CC)CC (stereo not given)	class 0
CCCCC/C(C=C(C#N)C#N)=C/c1ccccc1	class 0
O=C1/C(=C/c2ccc(OCCCOc3ccc(Cl)cc3)cc2)N=C2SCCCN12	class 0
O=c1c2c3c(sc2nc(N/N=C/c2cn(-c4ccccc4)nc2-c2ccc(Cl)cc2)n1Cc1ccccc1)CCCC3	class 0
COc1cc2c(cc1-c1c(C)noc1C)ncc1nc(C3CCCCC3)n([C@H](C)COC(F)F)c12	class 0
Cc1cc(N2CCCCCC2)nc(NC2CCCC(Nc3ccnc4cc(Cl)ccc34)C2)n1 (stereo not given)	class 1
CCCc1cc(=O)n2c(C(=O)Nc3cccc(C(=O)OCC)c3)c(C(=O)Nc3ccc(F)cc3)sc2n1	class 0
CCOc1cc2ncc(C#N)c(Nc3ccc(F)c(Cl)c3)c2cc1NC(=O)CC1CCSS1 (stereo not given)	class 1

###

Tested on: COLO 205 colon
Assay: NCI-60 one-dose screen, 48 h (100 = growth as untreated, 0 = no growth, -100 = all killed)
Details: 10 µM unless noted
The panel holds about 83,000 compounds, 20% with a hit somewhere; the sample as a whole holds those more often. The source made the active and inactive calls. Rule for the calls: active = growth percent below 10; inactive = the rest.

smi	growth
C#CCOc1ccc2ncnc(N3CCC(NC(=O)CCl)CC3)c2c1	82.5% [8.25 µM] (inactive)
CCOC(=O)c1cc(C(=O)c2ccc(O)c(O)c2)n2ccc(-c3ccn4c(C(=O)c5ccc(O)c(O)c5)cc(C(=O)OCC)c4c3)cc12	102% (inactive)
Nc1ccc(S(=O)(=O)O)c2ccc(N=Nc3ccc(N=Nc4ccc(S(=O)(=O)O)cc4)c4ccccc34)c(O)c12	105% (inactive)
CSc1nc(NCc2ccccc2)c(C#N)c(-c2cccc([N+](=O)[O-])c2)n1	110% (inactive)
O=S(=O)(Nc1ccc(OC(F)F)cc1)c1ccc(-c2cnc(C3CC3)o2)cc1	97.2% (inactive)

###

# key: entry, value: growth
Test system: K-562 leukemia
Test: NCI-60 one-dose screen, 48 h (100 = growth as untreated, 0 = no growth, -100 = all killed)
Conditions: 10 µM unless noted
About 83,000 compounds went through this panel and 20% of them were active in at least one assay; those are over-represented in the sample as a whole. The source made the active and inactive calls. The calls were made as follows: active = growth percent below 10; inactive = the rest.
measured.parameter: growth

compound	measured.parameter	reported.measurement
COc1ccc(-c2nc3ccc(-c4nc5ccc(N6CCN(C)CC6)cc5[nH]4)cc3[nH]2)cc1OC	growth	40.5% (inactive)
COC(=O)c1ccc(Cn2cnc3c(N)ncnc32)cc1	growth	89.4% (inactive)
Cc1cc(C)nc(SC2=C(Nc3cccc(Cl)c3)C(=O)N(Cc3ccccc3)C2=O)n1	growth	51.8% [30 µM] (inactive)
O=C1/C(=C/c2ccccc2)SC(=S)N1CCc1ccc(O)cc1	growth	90.9% (inactive)
CC(=O)O[C@H]1CC[C@]2(C)[C@H]3CC=C4[C@@H]5CC(C)(C)CC[C@]5(C(=O)NCCNCCNCCN)CC[C@@]4(C)[C@]3(C)CC[C@H]2C1(C)C	growth	-11.3% (active)
COc1cccc(Nc2nc(SC)nc(-c3cccc([N+](=O)[O-])c3)c2C#N)c1	growth	85.4% (inactive)
C=C1C(=O)O[C@H]2[C@H]1CC/C(COC(=O)c1cc3cc(OC)ccc3[nH]1)=C\CC[C@@]1(C)O[C@@H]21	growth	0.302% (active)
CCC(=O)c1ccc(Cl)s1	growth	109% (inactive)
Cn1cc(-c2nonc2-c2cn(C)c3ccc(F)cc23)c2ccccc21	growth	9.9% (active)
CN1CCN(CCCOc2cccc3nc(Nc4ccc(Cl)c(F)c4)ccc23)CC1	growth	-48.6% (active)
CCOC(=O)c1sc2nc(-c3cccc(OC)c3)nc(N3CCOCC3)c2c1C	growth	97.2% (inactive)
Cc1ccc(NS(=O)(=O)c2ccc(-c3cnc(C4CC4)o3)cc2)cc1C	growth	9.36% (active)
O=C1NC(=Nc2ccc(O)cc2)S/C1=C\c1cccc(Cl)c1	growth	21.9% (inactive)
COc1cc(C(=O)Oc2ccccc2OC(=O)c2cc(OC)c(OC)c(OC)c2)cc(OC)c1OC	growth	100% (inactive)
O=S(=O)(Nc1ccc(I)cc1F)c1ccc(-c2cnc(C3CC3)o2)cc1	growth	13.2% (inactive)
Cc1ccc2c(C(C[N+](=O)[O-])c3ccco3)c(-c3ccccc3)[nH]c2c1 (stereo not given)	growth	11.5% (inactive)
CC(C)n1c(/C=C/[C@@H](O)C[C@@H](O)CC(=O)O)c(-c2ccc(F)cc2)c2ccccc21	growth	66.4% (inactive)
O=C(C(=O)c1ccc2c(c1)OCO2)c1ccc2c(c1)OCO2	growth	108% (inactive)
O=C1/C(=C/N2N=C(c3ccc4ccccc4c3)CC2c2ccccc2O)SC(=S)N1c1cccnc1 (stereo not given)	growth	10.9% (inactive)
COc1cc(-c2nc3ccccc3[nH]2)ccc1OCC(=O)N=Nc1c(O)[nH]c2ccc(Cl)cc12	growth	-25.4% (active)

Each recorded value in this set is attributed to PubChem BioAssay (NCI).
